- Test system: MDA-MB-231 breast
- ASSAY PROTOCOL: NCI-60 one-dose screen, 48 h
- CONDITION DETAILS: 10 µM unless noted
Compounds without any hit were thinned out: in the full panel of roughly 83,000, 20% have a hit. Active and inactive are the calls of the source. Rule for the calls: active = growth percent below 10; inactive = the rest.
Select the matching outcome among active, inactive

Call for entry Nc1ncnc2c1C(c1ccc(Br)cc1)c1sc3c(F)cccc3c1O2 (stereo not given) :
inactive

Call for entry CC1CCN(CCOc2ccc(CNc3ccc4nc(CCC5CCCCC5)[nH]c4c3)cc2)CC1 :
active

Call for entry O=C(/C=C(/C=C/c1ccc2[nH]ccc2c1)OB(F)F)/C=C/c1ccc2[nH]ccc2c1 :
inactive

Call for entry CC(=O)c1c(C)nc(SCC(=O)Nc2cccc(O)c2)n1-c1ccc(Cl)cc1 :
inactive

Call for entry Cc1ccc(-c2nc([P+](c3ccccc3)(c3ccccc3)c3ccccc3)c(S(=O)(=O)c3ccc(C)cc3)o2)cc1 :
active

---

- Test system: HOP-92 NSCLC
- ASSAY PROTOCOL: NCI-60 one-dose screen, 48 h (100 = growth as untreated, 0 = no growth, -100 = all killed)
- CONDITION DETAILS: 10 µM unless noted
The panel holds about 83,000 compounds, 20% with a hit somewhere; the sample as a whole holds those more often.
Kindly state growth for each of the entries shown.
Response body: numeric value in %, unit text excluded.

# input compound: CCOC(=O)C1=C(c2ccccc2)N=C2SC=C(c3ccc(Cl)cc3)N2C1c1ccc(Br)cc1 (stereo not drawn) ; wanted: its growth
56.1

# input compound: CNC(=O)c1[nH]cc(-c2ccc(OC)cc2)c1-c1cc(OC)c2c(c1OC)OCO2 ; wanted: its growth
89.6

# input compound: COc1cc(OC)c(NC(=O)c2cc3ccccc3cc2O)cc1Cl ; wanted: its growth
-31.2

# input compound: C1CCC([PH+](C2CCCCC2)C2CCCCC2[PH+](C2CCCCC2)C2CCCCC2)CC1.[Au].[CH-]1CCCCC1C1CCCC[N-]1 (stereo not drawn) ; wanted: its growth
-38.5

# input compound: O=C(O)c1cn(C2CC2)c2cc(N3CCN(Cc4ccc5ccccc5c4O)CC3)c(F)cc2c1=O ; wanted: its growth
-6.42

# input compound: CCCCCCCCCCCCCCCCOCCCOP(=O)(O)C1CCCN(O)C1=O (stereo not drawn) ; wanted: its growth
39.3

# input compound: O=c1c2cnn(-c3ccccc3)c2n2c(CN3CCOCC3)nnc2n1-c1ccccc1 ; wanted: its growth
81.3

# input compound: CC(C)(C)[Si](C)(C)OC1[C@@H](CNC(=O)NC(=O)NC(N)=O)O[C@@H](n2cnc3c(NC(=O)Nc4ccccc4)ncnc32)[C@H]1O[Si](C)(C)C(C)(C)C (stereo partly drawn) ; wanted: its growth
92

---

- Test system: SK-OV-3 ovarian
- ASSAY PROTOCOL: NCI-60 one-dose screen, 48 h
- CONDITION DETAILS: 10 µM unless noted
The panel holds about 83,000 compounds, 20% with a hit somewhere; the sample as a whole holds those more often. The source made the active and inactive calls. How the source made its calls: active means growth percent below 10; inactive means the rest.
Select the matching outcome among active, inactive

Call for entry Clc1cc(Cl)c(Cl)c(-c2nnc(SCc3ccncc3Br)o2)c1 :
inactive

Call for entry C=CCOC(=O)Nc1cccn([C@H](Cc2ccccc2)C(=O)NCCC(C)C)c1=O :
inactive

Call for entry NC(Cc1ccc(O)c([N+](=O)[O-])c1)C(=O)O (centres undefined) :
inactive

Call for entry COc1ccc(-c2ccc(-c3ccc(C(=N)N)cc3)s2)cc1Cl :
inactive

Call for entry N#CC1=C(c2ccccc2)Nc2c(c(-c3ccc(Cl)cc3)nn2-c2ccccc2)C12C(=O)Nc1ccc(Cl)cc12 (centres undefined) :
inactive

Call for entry CC1CCN(S(=O)(=O)c2ccc(S(=O)(=O)N3CCCC(c4nc5c(nnn5Cc5cccc(Cl)c5)c(=O)[nH]4)C3)cc2)CC1 (centres undefined) :
inactive

Call for entry N#Cc1ccc(O)c(C2=NCC(c3cccc(Oc4ccccc4)c3)O2)c1 (centres undefined) :
active

Call for entry COc1cc2oc(-c3cccc(NC(=O)c4ccccc4)c3)cc(=O)c2c(OC)c1OC :
inactive

Call for entry Cc1cc(S(=O)(=O)/N=C(\N)n2nc(C)c(C)c2C)c(SCc2ccccc2)cc1Cl :
inactive

---

- Tested on: SW-620 colon
- ASSAY PROTOCOL: NCI-60 one-dose screen, 48 h (100 = growth as untreated, 0 = no growth, -100 = all killed)
- CONDITION DETAILS: 10 µM unless noted
Compounds without any hit were thinned out: in the full panel of roughly 83,000, 20% have a hit.
Criterion: growth strictly under 30%. Met: y. Not met: n.

Item COc1cc2oc(-c3cccc(NC(=O)c4ccccc4)c3)cc(=O)c2c(OC)c1OC : growth beneath 30%, strictly?
n

Item COC12C=C/C(=C(/C(=O)OCc3ccncc3)C(=O)CCCCCCCCC3(OC)C=C/C(=C(/C(=O)OCc4ccncc4)C(=O)CCCCCCCC1)O3)O2 : growth beneath 30%, strictly?
y

Item N#CSCC1CC(O)(c2ccccc2)CC(c2ccc(F)cc2)O1 (stereo not given) : growth beneath 30%, strictly?
y

Item COCCOc1cc2ncnc(N3CCN(c4cc(S(C)(=O)=O)c(C)cc4Cl)CC3)c2cc1OCCOC : growth beneath 30%, strictly?
n

Item Nc1c(C(=O)Nc2ccccc2F)sc2nc3c(cc12)CCCC3 : growth beneath 30%, strictly?
y

---

Kindly state growth for each of the entries shown.
- Tested on: OVCAR-5 ovarian
- ASSAY PROTOCOL: NCI-60 one-dose screen, 48 h (100 = growth as untreated, 0 = no growth, -100 = all killed)
- CONDITION DETAILS: 10 µM unless noted
- Description: Growth inhibition of the OVCAR-5 human tumor cell line is measured as a screen for anti-cancer activity. Cells are grown in 96 well plates and exposed to the test compound for 48 hours. Compounds are tested at a single concentration, which is 10^-5 M for most compounds. The reported endpoint is percent growth (GI% or GIPRCNT), where numbers from 0 - 100% represent growth inhibition, and numbers from -100% - 0 represent cell death. For example, a value of 40 represents 60% growth inhibition. […]
Compounds without any hit were thinned out: in the full panel of roughly 83,000, 20% have a hit.
Response body: numeric value in %, unit text excluded.

# input compound: Cc1ccc(Nn2c(SCC(=O)Nc3nc(-c4ccccc4)cs3)nc(C)c2C)cc1 ; wanted: its growth
81.8

# input compound: O=C1Nc2ccccc2/C1=C/c1cccn1CCCCn1c2ccccc2c(=O)c2ccccc21 ; wanted: its growth
77.9

# input compound: CSc1nc2ccccc2cc1/C=[N+](\[O-])c1ccccc1 ; wanted: its growth
91.1

# input compound: O=C1Nc2ccc(C(=O)O)cc2/C1=N/c1nnc(Sc2ccccc2)s1 ; wanted: its growth
113

# input compound: C#Cc1c2c(c(OC)c3c1OCO3)[C@H]([C@H]1OC(=O)c3c1ccc(OC)c3OC)N(C)CC2 ; wanted: its growth
101

# input compound: CCOC(=O)C1=C(c2ccccc2)N=C2SC=C(c3ccc(Cl)cc3)N2C1c1ccc(Cl)cc1 (stereo not given) ; wanted: its growth
96.9

# input compound: CCCc1c(OC(=O)c2ccccc2)nc2[nH]c(=O)sc2c1C ; wanted: its growth
98.8

# input compound: NS(=O)(=O)c1ccc(N=Nc2c(O)n(Cc3ccccc3)c3ccc(Cl)cc23)cc1 ; wanted: its growth
86.8

# input compound: COc1ccc(C(=O)N2c3ccccc3Sc3ccccc32)c(OC)c1 ; wanted: its growth
47.8

# input compound: N=C(N)c1ccc(-c2ccc(-c3ccccc3)o2)cc1 ; wanted: its growth
-10.9

# input compound: CCc1ncnc2c1ccn2C(C)c1ccc(OC)c(F)c1 (stereo not given) ; wanted: its growth
88.1

# input compound: COc1ccc(Nc2ncc(Br)c(NCCCNC(=O)c3cccs3)n2)cc1 ; wanted: its growth
60.6

# input compound: N#Cc1ccc2c(c1)C(=O)c1c-2n(CCCN)c(=O)c2cc([N+](=O)[O-])ccc12 ; wanted: its growth
16.6

# input compound: O=C1NC(=C(Cl)Cl)/C(=N\S(=O)(=O)NCc2ccccc2)N1 ; wanted: its growth
98.4

# input compound: O=C(Nc1cccc(-c2ccc(Cl)c(C(F)(F)F)c2)c1)C1CCN(Cc2cccc3cccnc23)CC1 ; wanted: its growth
70.2

# input compound: O=S(=O)(Nc1cc(Cl)ccc1Cl)c1ccc(-c2cnc(C3CC3)o2)cc1 ; wanted: its growth
72.1

# input compound: Cn1cc(-c2csc(-c3c[nH]c4ccccc34)n2)c2cnccc21 ; wanted: its growth
75.4

# input compound: Nc1c(C(=O)Nc2ccncc2)sc2nc3c(cc12)C(O)CCC3 (stereo not given) ; wanted: its growth
97.2

# input compound: NC(=O)c1cccc(-n2ccc3cc(NC(=O)c4ccc(N5CCOCC5)c(C(F)(F)F)c4)ccc32)n1 ; wanted: its growth
70.1

# input compound: COC12C=C/C(=C(/C(=O)OCc3ccncn3)C(=O)CCCCCCCCC3(OC)C=C/C(=C(/C(=O)OCc4ccncn4)C(=O)CCCCCCCC1)O3)O2 ; wanted: its growth
-2.72

All values here come from PubChem BioAssay (NCI).
